assayed.system: human GCG receptor (human, UniProt P47871 26-477)
Sequence (P47871 26-477): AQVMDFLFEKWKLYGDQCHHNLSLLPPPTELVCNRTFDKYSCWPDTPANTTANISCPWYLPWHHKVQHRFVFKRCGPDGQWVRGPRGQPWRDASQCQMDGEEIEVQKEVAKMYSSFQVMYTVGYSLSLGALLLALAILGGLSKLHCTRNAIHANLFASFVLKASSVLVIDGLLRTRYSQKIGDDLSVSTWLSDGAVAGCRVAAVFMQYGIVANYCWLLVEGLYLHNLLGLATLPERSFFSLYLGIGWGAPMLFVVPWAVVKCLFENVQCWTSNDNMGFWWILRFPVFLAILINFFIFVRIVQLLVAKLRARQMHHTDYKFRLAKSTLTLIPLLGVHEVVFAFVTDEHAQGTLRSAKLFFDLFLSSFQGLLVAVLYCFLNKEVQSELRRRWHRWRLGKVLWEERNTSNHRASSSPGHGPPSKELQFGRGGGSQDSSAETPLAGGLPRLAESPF
protocol.details: cell-based or functional assay
measured.endpoint: cAMP EC50, HEK-293 cells stably overexpressing human GCG R

Ask: Supply recorded cAMP EC50, HEK-293 cells stably overexpressing human GCG R for YXQGTXTSDYSIXLDKKAQXAFIEYLLETGPSSGXPPPS (Aib at 2; αMeF at 6; αMeL at 13; Lys 17 side chain AEEAc-AEEAc-γGlu-CO(CH2)18COOH; Aib at 20; Aib at 35; C-terminal amide (NH2)) [Compound 7] here.
Reply: 0.058 nM

Ask: Consider the binder YXHGTXTSDYSIXLDKKAQXAFIEYLLEXHPSSGQPPPS (Aib at 2; αMeF(2F) at 6; αMeL at 13; Lys 17 side chain AEEAc-AEEAc-γGlu-CO(CH2)18COOH; Aib at 20; Aib at 29; C-terminal amide (NH2)) [Compound 6] . State its measured cAMP EC50, HEK-293 cells stably overexpressing human GCG R.
Reply: 0.058 nM

Ask: State its cAMP EC50, HEK-293 cells stably overexpressing human GCG R for this binder: YXQGTXTSDYSIXLDKKAQXAFIEFLLESHPSSXHPPXS (Aib at 2; αMeF(2F) at 6; αMeL at 13; Lys 17 side chain AEEAc-AEEAc-γGlu-CO(CH2)18COOH; Aib at 20; Aib at 34; Ac3c at 38; C-terminal amide (NH2)) [Compound 40]
Reply: 0.167 nM

Ask: Indicate the recorded cAMP EC50, HEK-293 cells stably overexpressing human GCG R value for this binder: YXQGTXTSDYSIXLDKKAQXAFIEYLLETGPSSGQPPPS (Aib at 2; αMeF at 6; αMeL at 13; Lys 17 side chain AEEAc-AEEAc-γGlu-CO(CH2)18COOH; Aib at 20; C-terminal amide (NH2)) [Compound 8]
Reply: 0.071 nM

Ask: Determine from records and report cAMP EC50, HEK-293 cells stably overexpressing human GCG R for YXQGTXTSDYSIXLDKKAQXAFIEFLLETGPSSGAPPPS (Aib at 2; αMeF(2F) at 6; αMeL at 13; Lys 17 side chain AEEAc-AEEAc-γGlu-CO(CH2)18COOH; Aib at 20; C-terminal amide (NH2)) [Compound 19]
Reply: 0.029 nM

Ask: Supply recorded cAMP EC50, HEK-293 cells stably overexpressing human GCG R for YXQGTXTSDYSIXLDKKAQXAFIEYLLETGPSSGQPPXS (Aib at 2; αMeF(2F) at 6; αMeL at 13; Lys 17 side chain AEEAc-AEEAc-γGlu-CO(CH2)18COOH; Aib at 20; Ac3c at 38; C-terminal amide (NH2)) [Compound 34] here.
Reply: 0.038 nM

Ask: // Input: YXQGTXTSDYSILLDKKAQXAFIEFLLESHPSSXHPPXS (Aib at 2; αMeF(2F) at 6; Lys 17 side chain AEEAc-AEEAc-γGlu-CO(CH2)18COOH; Aib at 20; Aib at 34; Ac3c at 38; C-terminal amide (NH2)) [Compound 41] . Output its cAMP EC50, HEK-293 cells stably overexpressing human GCG R only.
Reply: 0.081 nM

Ask: Give the reported cAMP EC50, HEK-293 cells stably overexpressing human GCG R for this binder. YXQGTXTSDYSIFLDKKAQXAFIEYLLEXHPSSGAPPPS (Aib at 2; αMeF(2F) at 6; Lys 17 side chain AEEAc-AEEAc-γGlu-CO(CH2)18COOH; Aib at 20; Aib at 29; C-terminal amide (NH2)) [Compound 18]
Reply: 0.026 nM

Ask: For the binder YXQGTXTSDYSIFLDKKAQXAFIEFLLEGGPSSGQPPPS (Aib at 2; αMeF(2F) at 6; Lys 17 side chain AEEAc-AEEAc-γGlu-CO(CH2)18COOH; Aib at 20; C-terminal amide (NH2)) [Compound 21] , report cAMP EC50, HEK-293 cells stably overexpressing human GCG R.
Reply: 0.025 nM
